The entries below are paired with their reported activation.
Target Or Test System: Kallikrein-7 (Homo sapiens)
Assay Details: activation of human kallikrein-7 proenzyme – biochemical, fluorescence intensity, primary screen (AID 652039)
Test Settings: purified proKLK7, EDANS-DABCYL substrate fluorescence; at 7 µM; hits give high values; 100% is mature enzyme control, 0% vehicle
The whole screen tested about 370,000 compounds, of which about 3,300 (0.89%) were called active. Many of the other results were omitted from the sample, so actives are more common in it than they were.
State just the number; it will be interpreted in %.

Q. State the recorded activation for this entry: `COc1cccc2sc3cc(NCC[C@@H]4CCCN4C)ccc3c(=O)c12`
A. 41.5

Q. State the recorded activation for this entry: `COC(=O)[C@]12C[C@H](CC(=O)N3CCN(C(=O)C4CC4)CC3)C(=O)N(Cc3ccc4c(c3)OCO4)C1=C[C@H](C(C)(C)C)O[C@@H]2C`
A. 0.05

Q. State the recorded activation for this entry: COC(=O)C1CN(Cc2ccc(F)cc2)CCS(=O)(=O)N1Cc1ccc(Cl)cc1 (stereo not given)
A. -0.13

Q. State the recorded activation for this entry: `Cc1oc2nc(SCC(=O)NCc3cccnc3)nc(N)c2c1C`
A. 0.33

Q. State the recorded activation for this entry: `C[C@@H]1ON(C)[C@H]2C[C@H]3c4[nH]c5cccc(-c6ccc7c(c6)OCO7)c5c4CCN3C[C@@H]12`
A. 0.38

Now look at this one.
Q. State the recorded activation for this entry: `Cc1oc2nc(SCC(=O)Nc3ccc(S(N)(=O)=O)cc3)nc(NC(=O)c3ccccc3)c2c1C`
A. 16.3

====

Target Or Test System: Kallikrein-7 (Homo sapiens) (UniProt P49862)
Sequence (P49862 whole entry, looked up): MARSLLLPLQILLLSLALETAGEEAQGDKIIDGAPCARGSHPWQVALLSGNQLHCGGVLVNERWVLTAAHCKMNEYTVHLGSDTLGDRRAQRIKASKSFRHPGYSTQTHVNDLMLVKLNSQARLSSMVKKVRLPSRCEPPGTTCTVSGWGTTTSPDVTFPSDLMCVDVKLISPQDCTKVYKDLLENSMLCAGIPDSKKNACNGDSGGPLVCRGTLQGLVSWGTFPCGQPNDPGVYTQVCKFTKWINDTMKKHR
Assay Details: activation of human kallikrein-7 proenzyme – biochemical, fluorescence intensity, primary screen (AID 652039)
Test Settings: purified proKLK7, EDANS-DABCYL substrate fluorescence; at 7 µM; hits give high values; 100% is mature enzyme control, 0% vehicle
In all, about 370,000 compounds went through this assay and about 3,300 (0.89%) were called active. Many of the other results were omitted from the sample, so actives are more common in it than they were.
The entries below are paired with their reported activation.

Please review the entries below; each comes with its answer.
Q. Give recorded activation with Kallikrein-7 (Homo sapiens) (UniProt P49862) for the following compound: `CCOC(=O)[C@@]12CN(C(=O)OC(C)(C)C)CC=C1N(Cc1ccc(OC)cc1)C(=O)[C@H]2CC(=O)NCc1ccc(OC)c(OC)c1`
A. 0.61% (inactive)

Q. Give recorded activation with Kallikrein-7 (Homo sapiens) (UniProt P49862) for the following compound: `Cc1cc(=O)[nH]c(SCC(=O)Nc2ccc(F)cc2F)n1`
A. -0.3% (inactive)

Q. Give recorded activation with Kallikrein-7 (Homo sapiens) (UniProt P49862) for the following compound: `CCc1nn(CC(=O)N2CCN(CC)CC2)c(=O)c2cccn12`
A. -0.55% (inactive)

Q. Give recorded activation with Kallikrein-7 (Homo sapiens) (UniProt P49862) for the following compound: `C=CCN1C(=O)[C@@H](CC(=O)N2CCN(C(=O)c3ccco3)CC2)[C@]2(C(=O)OC)CCCCC=C12`
A. 0.64% (inactive)

Q. Give recorded activation with Kallikrein-7 (Homo sapiens) (UniProt P49862) for the following compound: `CCN1CCN(C(=O)CN(C)S(=O)(=O)c2ccc(OC)cc2)CC1`
A. -0.44% (inactive)

Q. Give recorded activation with Kallikrein-7 (Homo sapiens) (UniProt P49862) for the following compound: `Nn1c(SCC(=O)Nc2cccc3ccccc23)nnc1-c1cc(-c2ccc(F)cc2)n[nH]1`
A. 0.42% (inactive)

Q. Give recorded activation with Kallikrein-7 (Homo sapiens) (UniProt P49862) for the following compound: `NC(N)=Nc1nc2ccc(Br)cc2c(=O)[nH]1`
A. -0.15% (inactive)

Q. Give recorded activation with Kallikrein-7 (Homo sapiens) (UniProt P49862) for the following compound: `O=C(NCc1cccs1)C1CCN(S(=O)(=O)c2ccccc2[N+](=O)[O-])CC1`
A. 0.23% (inactive)

Q. Give recorded activation with Kallikrein-7 (Homo sapiens) (UniProt P49862) for the following compound: `COc1ccc(OCC(=O)N2CCN(C(=O)c3cccs3)CC2)cc1`
A. 0.07% (inactive)

Now look at this one.
Q. Give recorded activation with Kallikrein-7 (Homo sapiens) (UniProt P49862) for the following compound: `CCCN1CCN(C(=O)Cn2ncc3ccccc32)CC1`
A. -0.42% (inactive)
